Please go through the items and note down their abundance fitness.
B1: POU domain, class 3, transcription factor 3, residues 320 to 388; numbered along this chain, P20264 (parent)
chain: DDLEQFAKQFKQRRIKLGFTQADVGLALGTLYGNVFSQTTICRFEALQLSFKNMCKLKPLLNKWLEEAD

# Variants of: B1
# ASSAY_REMARKS: abundance fitness (aPCA) (normalised: wild type 0, dead -1); higher = more abundant; growth selection in yeast, the domain comes from the species named
# EXPERIMENTAL_CONDITIONS: Homo sapiens
Answer field: number only, no words.

variant T40E , abundance fitness observed: -0.237

variant N34A , abundance fitness observed: -0.036

variant T30K , abundance fitness observed: 0.336

variant D23Q , abundance fitness observed: 0.039

variant L28T , abundance fitness observed: -0.8

variant C42D , abundance fitness observed: 0.032
